// Ki collected for Human immunodeficiency virus type 1 protease (Human immunodeficiency virus 1)
Kindly answer with a numeric value in nM, unit omitted.

O=C(c1ccccc1)N1C[C@@H](O)[C@@H](Cc2ccccc2)N(Cc2ccc(O)cc2)C(=O)N1Cc1ccc(O)cc1 :: 0.01

Pending compound:
For Human immunodeficiency virus type 1 protease (Human immunodeficiency virus 1), give the measured Ki of the entry O=C1N(Cc2ccc(O)cc2)[C@H](Cc2ccccc2)[C@H](O)CN(S(=O)(=O)c2ccccc2)N1Cc1ccc(O)cc1
1.37

---

Assay: Antiviral activity against HIV virus in absence of human serum
Format: functional
measureName: EC50 (nM)
Kindly answer with a numeric value in nM, unit omitted.

Some entries whose results are on file:
C=Cc1cccc(S(=O)(=O)N2C[C@@H](O)[C@@H](Cc3ccccc3)N(Cc3cccc(C(=N)NO)c3)C(=O)N2CCCC)c1 :: 220
CCCCN1C(=O)N(Cc2cccc(C(=N)NO)c2)[C@H](Cc2ccccc2)[C@H](O)CN1S(=O)(=O)c1cccc(N)c1 :: 30
CCCCN1C(=O)N(Cc2cccc(C(=N)NO)c2)[C@H](Cc2ccccc2)[C@H](O)CN1S(=O)(=O)c1cccc([N+](=O)[O-])c1 :: 40

Pending compound:
Please look at this compound and report its EC50: CCCCN1C(=O)N(Cc2cccc(C(=N)NO)c2)[C@H](Cc2ccccc2)[C@H](O)CN1S(=O)(=O)c1cccc(/C(C)=N\O)c1
20

---

Experiment: Antiviral activity against HIV virus in absence of human serum
Assay type: functional
measureName: pEC50
Kindly note that pEC50 refers to -log10 of the concentration in mol/L and answer with the value alone.

CCCCN1C(=O)N(Cc2cccc(C(=N)NO)c2)[C@H](Cc2ccccc2)[C@H](O)CN1S(=O)(=O)c1cccc(C(C)=O)c1 :: 6.82
CCCCN1C(=O)N(Cc2cccc(C(=N)NO)c2)[C@H](Cc2ccccc2)[C@H](O)CN1S(=O)(=O)c1cccc(O)c1 :: 6.82
CCCCN1C(=O)N(Cc2cccc(C(=N)NO)c2)[C@H](Cc2ccccc2)[C@H](O)CN1S(=O)(=O)c1cccc(Br)c1 :: 6.80

Please look at this compound and report its pEC50: CCCCN1C(=O)N(Cc2cccc(C(=N)NO)c2)[C@H](Cc2ccccc2)[C@H](O)CN1S(=O)(=O)c1cccc(C(C)O)c1 (some centres undefined)
7.40

Data provenance: ChEMBL document CHEMBL1137138
